Molecular target: Serine/threonine-protein kinase 3 (Homo sapiens)
Sequence (whole entry): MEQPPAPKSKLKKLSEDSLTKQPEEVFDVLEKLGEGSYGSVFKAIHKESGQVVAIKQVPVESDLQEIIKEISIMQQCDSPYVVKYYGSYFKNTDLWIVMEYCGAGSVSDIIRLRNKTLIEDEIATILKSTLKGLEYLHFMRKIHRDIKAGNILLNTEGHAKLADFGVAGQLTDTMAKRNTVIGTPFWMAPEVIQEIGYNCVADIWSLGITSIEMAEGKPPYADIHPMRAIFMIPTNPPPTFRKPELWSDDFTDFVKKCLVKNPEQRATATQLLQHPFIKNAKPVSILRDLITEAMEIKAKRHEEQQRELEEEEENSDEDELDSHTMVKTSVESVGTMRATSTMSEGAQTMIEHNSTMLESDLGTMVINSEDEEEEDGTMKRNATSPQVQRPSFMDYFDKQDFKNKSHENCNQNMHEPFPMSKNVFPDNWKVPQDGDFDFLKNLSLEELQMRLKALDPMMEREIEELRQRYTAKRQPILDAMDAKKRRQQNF
Assay: Inhibition of wild-type human partial length MST2 (D17 to E318 residues) expressed in bacterial expression system by Kinomescan method
MEASUREMENT_TYPE: Kd (nM)
Lab book: enter the figure in nM, no units written.

Reported Kd for Nc1ncc(-c2cc([N+](=O)[O-])ccc2F)cc1-c1ccc2c(c1)CCNC2=O was 42.6

* * *

target: Tyrosine-protein kinase ABL2 (Homo sapiens); test: Inhibition of ARG in human NCI-H929 cells at 10 uM by mass spectroscopic analysis relative to control; assay type: cell-based
Entries annotated with measured inhibition
// note: answer is a bare numeric in %

Known results for compounds:
Nc1ncc(-c2cccc3ncsc23)cc1-c1ccc2c(c1)CCNC2=O	50
Nc1ncc(-c2ccc(NS(=O)(=O)C3CC3)cc2F)cc1-c1ccc2c(c1)CCNC2=O	0
COc1cc(NS(=O)(=O)C2CC2)ccc1-c1cnc(N)c(-c2ccc3c(c2)CCNC3=O)c1	0
CN(C1CC1)S(=O)(=O)c1ccc(-c2cnc(N)c(-c3ccc4c(c3)CCNC4=O)c2)c(F)c1	0

The recorded inhibition for Nc1ncc(-c2ccc(NS(=O)(=O)C3CC3)cc2OC2CCCCC2)cc1-c1ccc2c(c1)CCNC2=O is 0

* * *

This listing pairs molecules with measured inhibition.
target: TRAF2 and NCK-interacting protein kinase (Homo sapiens); assay: Inhibition of TNIK in human NCI-H929 cells at 10 uM by mass spectroscopic analysis relative to control; type: cell-based

Nc1ncc(-c2ccc(NS(=O)(=O)C3CC3)cc2F)cc1-c1ccc2c(c1)CCNC2=O	> 90%
COc1cc(NS(=O)(=O)C2CC2)ccc1-c1cnc(N)c(-c2ccc3c(c2)CCNC3=O)c1	> 90%
Nc1ncc(-c2ccc(NS(=O)(=O)C3CC3)cc2OC2CCCCC2)cc1-c1ccc2c(c1)CCNC2=O	50%

Tested on TRAF2 and NCK-interacting protein kinase (Homo sapiens): Nc1ncc(-c2cccc3ncsc23)cc1-c1ccc2c(c1)CCNC2=O . Observed inhibition: > 90%

Param item: CN(C1CC1)S(=O)(=O)c1ccc(-c2cnc(N)c(-c3ccc4c(c3)CCNC4=O)c2)c(F)c1 ; param system: TRAF2 and NCK-interacting protein kinase (Homo sapiens); output inhibition: > 90%

Record Nc1ncc(-c2cccc([N+](=O)[O-])c2F)cc1-c1ccc2c(c1)CCNC2=O has TRAF2 and NCK-interacting protein kinase (Homo sapiens) inhibition equal to > 90%
